measurement_target: D(3) dopamine receptor (Homo sapiens, UniProt P35462)
Sequence (P35462 whole entry): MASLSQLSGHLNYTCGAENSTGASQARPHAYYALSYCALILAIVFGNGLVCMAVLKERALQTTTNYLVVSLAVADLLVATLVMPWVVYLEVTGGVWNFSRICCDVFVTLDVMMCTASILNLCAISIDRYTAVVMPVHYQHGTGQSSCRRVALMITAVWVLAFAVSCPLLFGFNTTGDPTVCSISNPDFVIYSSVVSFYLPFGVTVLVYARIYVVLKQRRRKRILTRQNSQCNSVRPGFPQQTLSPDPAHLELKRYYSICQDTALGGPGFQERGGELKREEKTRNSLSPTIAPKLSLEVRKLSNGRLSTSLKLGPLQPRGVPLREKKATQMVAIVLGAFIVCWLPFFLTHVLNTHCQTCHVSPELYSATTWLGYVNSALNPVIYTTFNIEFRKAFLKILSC
assay_name: Displacement of [3H]spiperone from human cloned dopamine D3 expressed in CHO cells
Format: cell-based
Set-up: concentration or dose not given beside the values
attribute_measured: Activity (%)

Some compounds with recorded Activity:
>>> print(df.to_string())
                              smiles_string  observed_value
0  O=C(NCCN1CCN(c2cccc(Cl)c2Cl)CC1)c1cn(-c2ccc([N+](=O)[O-])cc2)nn1              52
1  COc1ccc(-n2cc(CCCC(=O)NCCCCN3CCN(c4ccccc4OC)CC3)nn2)cc1              46
2  COc1ccc(-n2cc(CCCC(=O)NCCN3CCN(c4cccc(Cl)c4Cl)CC3)nn2)cc1              42
3  O=C(NCCCCN1CCN(c2cccc(Cl)c2Cl)CC1)c1cn(-c2ccc([N+](=O)[O-])cc2)nn1              95
4  COc1ccc(-n2cc(C(=O)NCCCCN3CCN(c4ccccc4Cl)CC3)nn2)cc1              58
5  COc1ccc(-n2cc(C(=O)NCCCCN3CCN(c4ccccc4OC)CC3)nn2)cc1              57
6  COc1ccc(-n2cc(CCCC(=O)NCCCCN3CCN(c4cccc(Cl)c4Cl)CC3)nn2)cc1              71
7  O=C(CCCc1cn(-c2ccc([N+](=O)[O-])cc2)nn1)NCCCCN1CCN(c2ccccc2Cl)CC1              51
8  COc1ccccc1N1CCN(CCCCNC(=O)c2cn(-c3ccc([N+](=O)[O-])cc3)nn2)CC1              58
9  COc1ccc(-n2cc(C(=O)NCCCCN3CCN(c4cccc(Cl)c4Cl)CC3)nn2)cc1              76

a. COc1ccc(-n2cc(CCCC(=O)NCCCCN3CCN(c4ccccc4Cl)CC3)nn2)cc1
b. O=C(NCCCCN1CCN(c2ccccc2Cl)CC1)c1cn(-c2ccc([N+](=O)[O-])cc2)nn1
IN: Field: lower recorded Activity (choose a or b ) I would appreciate it if you answered with the label of your choice.
OUT: a
(a: 38%, b: 61%)

P. COc1ccccc1N1CCN(CCCCNC(=O)CCCc2cn(-c3ccc([N+](=O)[O-])cc3)nn2)CC1
Q. O=C(CCCc1cn(-c2ccc([N+](=O)[O-])cc2)nn1)NCCCCN1CCN(c2cccc(Cl)c2Cl)CC1
IN: Which of these two has the smaller recorded Activity: P or Q ? Answer = label.
OUT: P
(P: 51%, Q: 76%)

src = ChEMBL document CHEMBL1154112
